Origin of the recorded values: patent US9144539B2

Molecular target: methioninase (Fusobacterium nucleatum subsp. nucleatum)
Construct: disrupted by sonication to obtain the enzyme; endogenous in cells; host or cells: Fusobacterium nucleatum JCM 8532, sonicated cell lysate (unpurified)
Sequence (Q8RDT4 whole entry): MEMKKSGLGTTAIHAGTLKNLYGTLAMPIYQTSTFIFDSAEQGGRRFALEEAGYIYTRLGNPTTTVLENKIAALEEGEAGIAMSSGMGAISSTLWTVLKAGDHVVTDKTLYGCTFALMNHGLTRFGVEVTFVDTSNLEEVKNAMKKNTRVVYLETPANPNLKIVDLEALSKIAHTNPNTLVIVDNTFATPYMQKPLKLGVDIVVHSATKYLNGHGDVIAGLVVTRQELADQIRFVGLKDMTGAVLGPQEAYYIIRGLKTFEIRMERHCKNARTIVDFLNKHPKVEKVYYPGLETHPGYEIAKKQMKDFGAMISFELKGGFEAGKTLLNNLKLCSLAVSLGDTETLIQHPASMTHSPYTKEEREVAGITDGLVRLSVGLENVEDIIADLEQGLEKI
Assay: Cell-free methioninase inhibition test (α-ketobutyrate production from methionine)
Format: biochemical
Details: cell-free enzyme from sonicated bacteria; read-out: IC50 against methioninase (converted)
Readout: IC50
Write the numeric value and follow it with the unit.

[
  {
    "Compound": "CC(C)=CCC/C(C)=C/Cc1cc(C(=O)O)cc(C/C=C(\\C)CCC=C(C)C)c1O [Myrsinoic acid E, myrsinoic acid E]",
    "Readout": "IC50",
    "Result": "12.2 µM"
  },
  {
    "Compound": "CC(C)=CCCC(C)(O)C1Cc2cc(C(=O)O)cc(CC=C(C)C)c2O1 (stereo not drawn)",
    "Readout": "IC50",
    "Result": "11.2 µM"
  }
]

# input Query IC50 on methioninase (Fusobacterium nucleatum subsp. nucleatum) for CC(C)=CCC/C(C)=C/Cc1cc(C(=O)O)cc(C/C=C(\C)CCC=C(C)C)c1O [Myrsinoic acid E (Synthesized), Myrsinoic acid E]
# output 12.2 µM

# input Notebook entry, methioninase (Fusobacterium nucleatum subsp. nucleatum) assay: IC50 of `CC(C)=CCC/C(C)=C/Cc1cc(C(=O)O)cc(CC=C(C)C)c1O` = ?
# output 14.6 µM

# input Provide value of IC50 for this record tested with methioninase (Fusobacterium nucleatum subsp. nucleatum): `CC(C)=CCC[C@]1(C)Oc2c(CC=C(C)C)cc(C(=O)O)cc2C[C@@H]1O`
# output 13.9 µM

# input Lab note: need IC50 for CC(C)=CC/C=C(\C)C1Cc2cc(C(=O)O)cc(CC=C(C)C)c2O1 (stereo not drawn) on methioninase (Fusobacterium nucleatum subsp. nucleatum), anyone have it?
# output 8.81 µM
